The origin of these recorded values is patent US9113629B2.

- Tested on: SETVI: green foxtail (Setaria viridis)
- assay comment: Post-emergent Test III, herbicidal activity in wheat and barley
- Format: in vivo
- reported conditions: Setaria viridis, post-emergence, 504 h; Table 9; 140 g ai/ha; post-emergent; 21 d; read-out: Visual Growth Reduction (%) 21 Days After Application SETVI

| structure smiles | pest or weed control at 140 g/ha |
| --- | --- |
| Nc1c(F)c(-c2cc(F)c(Br)cc2F)nc(C(=O)O)c1Cl | 95 to 100% |
| Nc1c(Cl)c(C(=O)O)nc(-c2ccc(Br)cc2)c1Cl | 85 to 94% |
| C#Cc1ccc(-c2nc(N)c(OC)c(C(=O)O)n2)c(F)c1F | 75 to 84% |
| COC(=O)c1nc(-c2ccc(Br)cc2)c(Cl)c(N)c1Cl | 85 to 94% |

* * *

- Tested on: KCHSC: kochia (Kochia scoparia)
- assay comment: Post-emergent Test III, herbicidal activity in wheat and barley
- Type: in vivo
- reported conditions: Bassia scoparia, post-emergence, 504 h; 70 g ai/ha; read-out: Visual Growth Reduction (%) 21 Days After Application KCHSC
property label: pest or weed control at 70 g/ha

| structure smiles | property label | test value |
| --- | --- | --- |
| Nc1c(F)c(-c2ccc(C(F)(F)F)c(F)c2F)nc(C(=O)O)c1Cl | pest or weed control at 70 g/ha | 75 to 84% |
| Nc1c(F)c(-c2ccc(Br)cc2)nc(C(=O)O)c1Cl | pest or weed control at 70 g/ha | 95 to 100% |
| COC(=O)c1nc(-c2ccc(C(F)F)cc2)c(F)c(N)c1Cl | pest or weed control at 70 g/ha | 85 to 94% |
| Nc1c(F)c(-c2ccc(Cl)c(F)c2)nc(C(=O)O)c1Cl | pest or weed control at 70 g/ha | 95 to 100% |
| COC(=O)c1nc(-c2ccc(Br)c(F)c2F)c(F)c(N)c1Cl | pest or weed control at 70 g/ha | 85 to 94% |
| COC(=O)c1nc(-c2ccc(OC(F)F)cc2)c(F)c(N)c1Cl | pest or weed control at 70 g/ha | 0 to 29% |
| COC(=O)c1nc(-c2ccc(F)c(F)c2F)c(F)c(N)c1Cl | pest or weed control at 70 g/ha | 60 to 74% |
| COC(=O)c1nc(-c2ccc(Br)c(F)c2F)cc(N)c1Cl | pest or weed control at 70 g/ha | 60 to 74% |
| N#Cc1ccc(-c2nc(C(=O)O)c(Cl)c(N)c2F)cc1 | pest or weed control at 70 g/ha | 85 to 94% |

* * *

Reported pest or weed control at 140 g/ha values follow for various compounds
- Test system: Key Broadleaf Weed and Crop Species
- assay comment: Post-emergent Test II herbicidal activity (Table 5)
- Format: in vivo
- reported conditions: post-emergence, 336 h; HELAN: sunflower (Helianthus annuus); application rate 140 g ai/ha; post-emergent; 14 days after application; read-out: Visual Growth Reduction (%) 14 Days After Application, HELAN

| compound | pest or weed control at 140 g/ha |
| --- | --- |
| COC(=O)c1nc(-c2cc(F)c(C)cc2F)c(F)c(N)c1Cl [Compound 184] | 95 to 100% |
| Cc1cc(F)c(-c2nc(C(=O)O)c(Cl)c(N)c2F)cc1F [Compound 194] | 95 to 100% |
| Nc1c(F)c(-c2cc(F)c(C(F)F)cc2F)nc(C(=O)O)c1Cl [Compound 178] | 95 to 100% |
| Cc1cc(F)c(-c2cc(N)c(Cl)c(C(=O)O)n2)cc1F [Compound 188] | 75 to 84% |
| COC(=O)c1nc(-c2cc(F)c(C)cc2F)cc(N)c1Cl [Compound 179] | 85 to 94% |

* * *

Reported pest or weed control at 35 g/ha values follow for various compounds
- Test system: HORSS: barley, including spring and winter (Hordeum vulgare)
- assay comment: Post-emergent Test III, herbicidal activity in wheat and barley
- Type: in vivo
- reported conditions: Hordeum vulgare, post-emergence, 504 h; 35 g ai/ha; 21 days after application; read-out: Visual Gorowth Reduction (%) 21 days After Application HORSS

| compound | pest or weed control at 35 g/ha |
| --- | --- |
| C=Cc1c(C(=O)O)nc(-c2ccc(C(F)(F)F)c(F)c2)c(F)c1N [Compound 86] | 30 to 44% |
| Nc1c(F)c(-c2cc(F)c(I)cc2F)nc(C(=O)O)c1Cl [Compound 69] | 85 to 94% |
| COC(=O)c1nc(-c2ccc(Br)cc2F)c(F)c(N)c1Cl [Compound 52] | 85 to 94% |
| C#Cc1ccc(-c2nc(C(=O)O)c(Cl)c(N)c2F)c(F)c1 [Compound 108] | 30 to 44% |
| COC(=O)c1nc(-c2ccc(Br)c(F)c2F)nc(N)c1OC [Compound 122] | 60 to 74% |
| Nc1c(F)c(-c2ccc(Br)cc2F)nc(C(=O)O)c1Cl [Compound 163] | 85 to 94% |

* * *

- Tested on: Key Broadleaf Weed and Crop Species
- assay comment: Post-emergent Test II herbicidal activity (Table 5)
- Format: in vivo
- reported conditions: post-emergence, 336 h; AMARE: redroot pigweed (Amaranthus retroflexus); 70 g ai/ha; post-emergent; 14 days after application; read-out: Visual Growth Reduction (%) 14 Days After Application AMARE

| compound | pest or weed control at 70 g/ha |
| --- | --- |
| Nc1c(Cl)c(C(=O)O)nc(-c2ccc(Br)cc2)c1Cl [Compound 125] | 95 to 100% |
| Cc1c(-c2ccc(I)cc2)nc(C(=O)O)c(Cl)c1N [Compound 116] | 75 to 84% |
| C=Cc1c(C(=O)OC)nc(-c2ccc(C(F)(F)F)c(F)c2F)c(F)c1N [Compound 53] | 0 to 29% |
| Nc1c(Cl)c(C(=O)O)nc(-c2ccc(I)cc2)c1Cl [Compound 173] | 85 to 94% |
| Nc1c(F)c(-c2cc(F)c(I)cc2F)nc(C(=O)O)c1Cl [Compound 69] | 95 to 100% |
| C=Cc1c(N)nc(-c2ccc(C(F)(F)F)c(F)c2)nc1C(=O)OC [Compound 137] | 0 to 29% |
| Nc1c(Cl)c(C(=O)O)nc(-c2ccc(I)c(F)c2)c1Cl [Compound 145] | 75 to 84% |
| C=Cc1c(C(=O)O)nc(-c2ccc(Br)cc2)c(F)c1N [Compound 117] | 95 to 100% |
| C=Cc1c(C(=O)O)nc(-c2ccc(I)cc2)c(F)c1N [Compound 17] | 95 to 100% |

* * *

- Test system: TRZSS: wheat, including spring and winter (Triticum aestivum)
- assay comment: Post-emergent Test III, herbicidal activity in wheat and barley
- Assay type: in vivo
- reported conditions: Triticum aestivum, post-emergence, 504 h; 35 g ai/ha; 21 days after application; read-out: Visual Gorowth Reduction (%) 21 days After Application TRZSS

| structure smiles | pest or weed control at 35 g/ha |
| --- | --- |
| COC(=O)c1nc(-c2ccc(Br)cc2F)c(F)c(N)c1Cl | 85 to 94% |
| Nc1c(F)c(-c2ccc(I)c(F)c2F)nc(C(=O)O)c1Cl | 75 to 84% |
| COC(=O)c1nc(-c2ccc(I)c(F)c2F)c(F)c(N)c1Cl | 85 to 94% |
| Nc1cc(-c2ccc(I)c(F)c2F)nc(C(=O)O)c1Cl | 85 to 94% |
| Nc1c(F)c(-c2ccc(Br)cc2F)nc(C(=O)O)c1Cl | 75 to 84% |

* * *

- Test system: Key Grass and Sedge Weeds as well as Grass Crops
- assay comment: Post-emergent Test II herbicidal activity (Table 6)
- Type: in vivo
- reported conditions: post-emergence, 336 h, SORVU: grain sorghum (Sorghum vulgare), application rate 140 g ai/ha, read-out: Visual Growth Reduction (%) 14 Days After Application, SORVU
- From the text: Post-emergent Test II: Seeds or nutlets of the desired test plant species were planted in Sun Gro Metro-Mix® 360 planting mixture, which typically has a pH of 6.0 to 6.8 and an organic matter content of about 30 percent, in plastic pots with a surface area of 64 square centimeters. When required to ensure good germination and healthy plants, a fungicide treatment and/or other chemical or physical treatment was applied. […]
Reported pest or weed control at 140 g/ha values follow for various compounds

| structure smiles | pest or weed control at 140 g/ha |
| --- | --- |
| COC(=O)c1nc(-c2cc(F)c(C#N)cc2F)c(F)c(N)c1Cl | 0 to 29% |
| COc1c(N)nc(-c2ccc(OC(F)(F)F)cc2)nc1C(=O)O | 0 to 29% |
| COC(=O)c1nc(-c2cc(F)c(I)cc2F)cc(N)c1Cl | 85 to 94% |
| COC(=O)c1nc(-c2cc(F)c(C(F)F)cc2F)cc(N)c1Cl | 75 to 84% |
| COC(=O)c1nc(-c2ccc(C#N)cc2)c(C)c(N)c1Cl | 0 to 29% |
| COc1c(N)nc(-c2cc(F)c(Br)cc2F)nc1C(=O)O | 75 to 84% |
| COC(=O)c1nc(-c2ccc(Br)c(F)c2)c(Cl)c(N)c1Cl | 85 to 94% |
| Nc1c(F)c(-c2ccc(OC(F)F)c(F)c2F)nc(C(=O)O)c1Cl | 0 to 29% |
| Nc1cc(-c2ccc(I)cc2F)nc(C(=O)O)c1Cl | 95 to 100% |
| C=Cc1c(C(=O)OC)nc(-c2ccc(C(F)(F)F)c(F)c2F)c(F)c1N | 0 to 29% |
| COC(=O)c1nc(-c2ccc(OC(F)F)cc2)c(Cl)c(N)c1Cl | 0 to 29% |
| C=Cc1c(C(=O)O)nc(-c2ccc(I)cc2)c(F)c1N | 95 to 100% |
| Nc1c(F)c(-c2ccc(OC(F)F)c(F)c2)nc(C(=O)O)c1Cl | 45 to 59% |
| COC(=O)c1nc(-c2ccc(Br)cc2)c(C)c(N)c1Cl | 75 to 84% |
| Nc1cc(-c2ccc(I)c(F)c2F)nc(C(=O)O)c1Cl | 85 to 94% |
| COC(=O)c1nc(-c2ccc(OC(F)(F)F)cc2)nc(N)c1OC | 0 to 29% |
| COC(=O)c1nc(-c2ccc(I)cc2)c(Cl)c(N)c1Cl | 85 to 94% |
| COC(=O)c1nc(-c2ccc(C(N)=O)cc2)c(F)c(N)c1Cl | 0 to 29% |
| Nc1cc(-c2cc(F)c(OC(F)F)cc2F)nc(C(=O)O)c1Cl | 0 to 29% |
